experimental_target: T1, hRET.mFc (human)
T1 construct: also called dimeric human RET
test_name: SPR Biacore T200, mAb capture, 25 C
Method: Binding affinities and kinetic constants of human anti-RET antibodies were determined by surface plasmon resonance (Biacore T200) at […] (Tables 2-3). […] Binding equilibrium dissociation constants (KD) and dissociative half-lives (t_{1/2}) were calculated from the kinetic rate constants as: KD [M]=kd/kₐ; and t_{1/2}(min)=(ln2/(60*kd). Calculations were performed using BiacoreT200 evaluation software v1.0.
assay_endpoint: kon (M⁻¹ s⁻¹)
Use M⁻¹ s⁻¹ as the unit, but write only the number.

Example binders with recorded kon:
| binder | kon, M⁻¹ s⁻¹ |
| --- | --- |
| H4H8080P (antibody, human IgG4, V domains shown, human IgG4 Fc (H4H prefix)) VH: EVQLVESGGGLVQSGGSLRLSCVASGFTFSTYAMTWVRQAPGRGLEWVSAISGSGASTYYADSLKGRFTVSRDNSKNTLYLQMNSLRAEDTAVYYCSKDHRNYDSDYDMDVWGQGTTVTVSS VL: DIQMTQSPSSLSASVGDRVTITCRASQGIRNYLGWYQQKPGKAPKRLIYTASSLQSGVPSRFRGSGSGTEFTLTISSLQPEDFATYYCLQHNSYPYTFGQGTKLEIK | 183000 |
| H4H8071P (antibody, human IgG4, V domains shown, human IgG4 Fc (H4H prefix)) VH: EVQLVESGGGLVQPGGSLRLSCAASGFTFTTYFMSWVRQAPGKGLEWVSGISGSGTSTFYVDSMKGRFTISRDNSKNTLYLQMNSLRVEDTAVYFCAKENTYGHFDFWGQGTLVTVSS VL: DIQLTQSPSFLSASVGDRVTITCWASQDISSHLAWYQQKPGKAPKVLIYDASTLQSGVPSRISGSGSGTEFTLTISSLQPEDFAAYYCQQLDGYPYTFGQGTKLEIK | 200000 |
| H4H8046P (antibody, human IgG4, V domains shown, human IgG4 Fc (H4H prefix)) VH: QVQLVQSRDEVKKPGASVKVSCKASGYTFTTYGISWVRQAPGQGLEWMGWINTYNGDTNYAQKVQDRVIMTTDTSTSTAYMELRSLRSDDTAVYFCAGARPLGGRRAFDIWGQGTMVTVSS VL: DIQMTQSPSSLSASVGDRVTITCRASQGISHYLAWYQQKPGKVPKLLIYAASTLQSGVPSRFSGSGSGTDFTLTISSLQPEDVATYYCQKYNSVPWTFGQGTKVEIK | 280000 |

Could you now consider this next binder?
So for H4H8087P (antibody, human IgG4, V domains shown, human IgG4 Fc (H4H prefix)) VH: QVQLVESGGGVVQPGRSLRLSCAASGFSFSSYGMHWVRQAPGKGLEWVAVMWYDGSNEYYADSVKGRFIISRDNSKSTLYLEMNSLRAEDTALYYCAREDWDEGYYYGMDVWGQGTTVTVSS VL: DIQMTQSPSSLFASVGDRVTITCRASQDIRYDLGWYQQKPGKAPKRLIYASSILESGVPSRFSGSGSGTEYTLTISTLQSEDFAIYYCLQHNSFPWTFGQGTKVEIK , the logged kon turned out to be 1.22e+06
